- target: T1, human CDH6 on cells (human, UniProt P55285 54-790)
- T1 sequence: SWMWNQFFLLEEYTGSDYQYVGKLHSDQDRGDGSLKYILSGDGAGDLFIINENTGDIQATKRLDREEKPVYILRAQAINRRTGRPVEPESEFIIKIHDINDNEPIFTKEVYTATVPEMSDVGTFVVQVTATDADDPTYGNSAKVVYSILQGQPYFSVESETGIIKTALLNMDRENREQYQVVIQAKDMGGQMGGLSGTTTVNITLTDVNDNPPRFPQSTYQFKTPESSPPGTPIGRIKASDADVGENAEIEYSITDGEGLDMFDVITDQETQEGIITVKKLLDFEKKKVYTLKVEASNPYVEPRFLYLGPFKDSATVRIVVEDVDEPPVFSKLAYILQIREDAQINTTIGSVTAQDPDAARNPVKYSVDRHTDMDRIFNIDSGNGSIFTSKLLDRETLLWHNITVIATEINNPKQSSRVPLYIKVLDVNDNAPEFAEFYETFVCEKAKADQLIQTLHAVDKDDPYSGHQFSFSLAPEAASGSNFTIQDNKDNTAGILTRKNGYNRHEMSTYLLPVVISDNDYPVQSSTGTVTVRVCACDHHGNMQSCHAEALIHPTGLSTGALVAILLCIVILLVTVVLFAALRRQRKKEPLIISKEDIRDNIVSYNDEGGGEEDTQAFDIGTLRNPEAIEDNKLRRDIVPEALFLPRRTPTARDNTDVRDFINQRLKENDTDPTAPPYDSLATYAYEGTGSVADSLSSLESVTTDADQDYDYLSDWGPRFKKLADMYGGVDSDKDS
- experiment description: cell-based or functional assay
endpoint: percent inhibition at 1.22 nM ADC, SNU8 cells

1) NOV0719-SMCC-DM1 (antibody, human IgG1, kappa, V domains shown, SMCC-DM1 on primary amines, sites not stated) VH: QVQLLESGGGLVQPGGSLRLSCAASGFTFSSHWVHWVRQAPGKGLEWVSVISYMGSSTYYADSVKGRFTISRDNSKNTLYLQMNSLRAEDTAVYYCARGSYDMAFDVWGQGTLVTVSS VL: DIQMTQSPSSLSASVGDRVTITCRASQSIVSYLNWYQQKPGKAPKLLIYDASSLQSGVPSRFSGSGSGTDFTLTISSLQPEDFATYYCQQSGSHSITFGQGTKVEIKR; 3.18%

// switching to the query binder
# percent inhibition at 1.22 nM ADC, SNU8 cells lookup, item NOV0693-SMCC-DM1 (antibody, human IgG1, kappa, V domains shown, SMCC-DM1 on primary amines, sites not stated) VH: QVQLLESGGGLVQPGGSLRLSCAASGFTFSSYALHWVRQAPGKGLEWVSYIFYDSSSTYYADSVKGRFTISRDNSKNTLYLQMNSLRAEDTAVYYCARFLYSAYGVANWGQGTLVTVSS VL: DIQMTQSPSSLSASVGDRVTITCRASQSISFYLAWYQQKPGKAPKLLIYGASTLQSGVPSRFSGSGSGTDFTLTISSLQPEDFATYYCHQYSYWLRTFGQGTKVEIKR 35.6%
